Molecular target: glucosylceramide synthase (Homo sapiens, UniProt Q16739)
Construct: Microsomes were isolated from A375 human melanoma cells; endogenous in cells
Sequence (Q16739 whole entry): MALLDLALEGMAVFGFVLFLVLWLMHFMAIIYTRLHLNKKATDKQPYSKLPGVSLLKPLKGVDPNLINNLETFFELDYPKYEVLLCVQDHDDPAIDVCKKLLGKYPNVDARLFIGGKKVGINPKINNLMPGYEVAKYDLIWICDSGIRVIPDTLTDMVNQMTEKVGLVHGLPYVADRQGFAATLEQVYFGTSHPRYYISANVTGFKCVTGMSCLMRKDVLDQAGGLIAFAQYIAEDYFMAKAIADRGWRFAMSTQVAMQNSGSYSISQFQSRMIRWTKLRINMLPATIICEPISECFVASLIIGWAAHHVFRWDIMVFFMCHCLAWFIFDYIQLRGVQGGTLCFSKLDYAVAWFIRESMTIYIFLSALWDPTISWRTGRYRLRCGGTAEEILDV
Assay: microsomal assay measuring conversion of ceramide to glucosylceramide by HPLC (GCS IC50)
Conditions: concentration causing 50% inhibition of glucosylceramide synthase activity
Protocol: Inhibition of glucosylceramide synthase activity for certain compounds of the invention were measured with 1) a microsomal assay that directly measures the conversion of ceramide to glucosylceramide by HPLC and 2) second, cell based, phenotypic assay that monitors cell surface expression of the downstream lipid GM3 by antibody mediated immunofluorescence. The cell based assay was performed in two different cell types, B16 and C32. Cell viability was also assessed in the second, cell-based assay. […]
pIC50: −log10 of the molar value.
assay readout: pIC50

Below, 4 molecules whose answers are already recorded.
- molecule: "CC(C)(NC(=O)NC1(C)CCN2CCC1CC2)c1ccc(Oc2ccc(C(=O)N3CCOCC3)cc2)cc1 (centres unmarked) [Example 281]"
  assay readout: "pIC50"
  value reported: 7.50
- molecule: "CN(C)C(=O)c1ccc(-c2ccc(C(C)(C)NC(=O)NC3(C)CCN4CCC3CC4)cc2)cc1 (centres unmarked) [Example 261]"
  assay readout: "pIC50"
  value reported: 7.22
- molecule: "CC1(NC(=O)C2CCN(c3ncnc(-c4ccc(F)cc4)n3)CC2)CCN2CCC1CC2 (centres unmarked) [Example 50]"
  assay readout: "pIC50"
  value reported: 7.49
- molecule: "CC1(NC(=O)C2(F)CCN(c3ncc(C#N)c(Oc4ccc(F)cc4)n3)CC2)CN2CCC1CC2 (centres unmarked) [Example 122]"
  assay readout: "pIC50"
  value reported: 8.36

a. COC1(C(=O)NC2(C)CCN3CCC2CC3)CCN(c2nccc(-c3ccc(OCCF)cc3)n2)CC1 (centres unmarked) [Example 103]
b. COCCCOc1cnc(-c2cccc(C(C)(C)NC(=O)OC3CCN4CCC3CC4)c2)cn1 (centres unmarked) [Example 316]
c. COCCCOc1ccc(-c2cccc(C(C)(C)NC(=O)OC3CCN4CCC3CC4)c2)nn1 (centres unmarked) [Example 313]
d. CC(C)(NC(=O)OC1CCN2CCC1CC2)c1ccc(Oc2ccc(C(=O)N3CCC(F)(F)CC3)cc2)cc1 (centres unmarked) [Example 301]
[ask] Put the entries in order of pIC50, starting with the largest number. Reply: labels, ordered per the request.
[reply] a, d, b, c
(a: 8.44, d: 7.76, b: 7.55, c: 7.05)

* * *

# Lookup of reported IC50 keyed by entry
System: C32 human melanoma cells
Assay: cell viability in the C32 cell-based assay (Viability, C32 IC50)
Settings: read-out: Viability, C32 IC50; C32 cells; concentration causing 50% cell death; values greater than 10 represent a lack of cell death
Method: The cell based assay was performed in two different cell types, B16 and C32. Cell viability was also assessed in the second, cell-based assay. The “Compound Number” in the table corresponds to the compound disclosed in the Example of the same number. […] The results of the cell based assays (performed in two different cell systems, i.e. B16 mouse melanoma or C32 human melanoma cells) are expressed as “GM3 B16 IC50” or “GM3 C32 IC50” for the B16 assay and the C32 assay, respectively. […]
Use µM as the unit, but write only the number.

- molecule: "CCOc1ccc(-c2cccc(C(C)(C)NC(=O)OC3CN4CCC3CC4)c2)nn1 (centres unmarked) [Example 318]"
  IC50 (µM): 1

Turning now to a further molecule:
[ask] Quote IC50 reported for CN(C)C(=O)c1ccc(Oc2ccc(C(C)(C)NC(=O)OC3CN4CCC3CC4)cc2)cc1 (centres unmarked) [Example 287] please.
[reply] 3.16
